target entity: wild type PRC2 (wtPRC2) complex (Homo sapiens)
Sequence (O75530 whole entry): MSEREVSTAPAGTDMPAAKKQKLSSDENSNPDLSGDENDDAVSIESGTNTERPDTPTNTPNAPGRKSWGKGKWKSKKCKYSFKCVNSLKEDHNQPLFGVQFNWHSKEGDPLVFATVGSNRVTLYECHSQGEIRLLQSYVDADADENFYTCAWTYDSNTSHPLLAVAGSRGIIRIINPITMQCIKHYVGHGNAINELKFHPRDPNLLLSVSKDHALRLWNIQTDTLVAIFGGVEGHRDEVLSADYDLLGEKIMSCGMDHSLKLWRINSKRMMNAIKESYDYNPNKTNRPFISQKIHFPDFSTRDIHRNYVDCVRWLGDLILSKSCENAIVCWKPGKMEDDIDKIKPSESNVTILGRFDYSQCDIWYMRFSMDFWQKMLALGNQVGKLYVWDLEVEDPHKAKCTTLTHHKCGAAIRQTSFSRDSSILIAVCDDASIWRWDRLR
Sequence (Q15910 whole entry partner): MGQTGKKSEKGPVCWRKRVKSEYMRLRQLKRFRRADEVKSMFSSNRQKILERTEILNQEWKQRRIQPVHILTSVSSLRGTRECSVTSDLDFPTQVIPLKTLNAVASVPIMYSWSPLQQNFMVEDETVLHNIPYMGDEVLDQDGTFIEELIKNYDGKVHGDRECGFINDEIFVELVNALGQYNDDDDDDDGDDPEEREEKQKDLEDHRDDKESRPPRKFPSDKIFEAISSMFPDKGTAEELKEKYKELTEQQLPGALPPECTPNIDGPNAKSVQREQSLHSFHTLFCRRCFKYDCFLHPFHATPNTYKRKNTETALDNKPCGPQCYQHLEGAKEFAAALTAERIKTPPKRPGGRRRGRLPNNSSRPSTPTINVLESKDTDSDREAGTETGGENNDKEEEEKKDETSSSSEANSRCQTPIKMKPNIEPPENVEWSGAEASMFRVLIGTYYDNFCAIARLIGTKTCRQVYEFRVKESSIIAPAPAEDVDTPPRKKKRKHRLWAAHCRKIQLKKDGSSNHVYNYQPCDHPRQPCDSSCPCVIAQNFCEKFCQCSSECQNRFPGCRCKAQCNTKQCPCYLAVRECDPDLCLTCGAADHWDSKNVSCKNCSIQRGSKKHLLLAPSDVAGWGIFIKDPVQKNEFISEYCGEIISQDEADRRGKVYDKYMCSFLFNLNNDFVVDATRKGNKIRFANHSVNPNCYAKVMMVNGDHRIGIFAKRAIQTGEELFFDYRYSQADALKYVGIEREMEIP
Sequence (Q15022 whole entry partner): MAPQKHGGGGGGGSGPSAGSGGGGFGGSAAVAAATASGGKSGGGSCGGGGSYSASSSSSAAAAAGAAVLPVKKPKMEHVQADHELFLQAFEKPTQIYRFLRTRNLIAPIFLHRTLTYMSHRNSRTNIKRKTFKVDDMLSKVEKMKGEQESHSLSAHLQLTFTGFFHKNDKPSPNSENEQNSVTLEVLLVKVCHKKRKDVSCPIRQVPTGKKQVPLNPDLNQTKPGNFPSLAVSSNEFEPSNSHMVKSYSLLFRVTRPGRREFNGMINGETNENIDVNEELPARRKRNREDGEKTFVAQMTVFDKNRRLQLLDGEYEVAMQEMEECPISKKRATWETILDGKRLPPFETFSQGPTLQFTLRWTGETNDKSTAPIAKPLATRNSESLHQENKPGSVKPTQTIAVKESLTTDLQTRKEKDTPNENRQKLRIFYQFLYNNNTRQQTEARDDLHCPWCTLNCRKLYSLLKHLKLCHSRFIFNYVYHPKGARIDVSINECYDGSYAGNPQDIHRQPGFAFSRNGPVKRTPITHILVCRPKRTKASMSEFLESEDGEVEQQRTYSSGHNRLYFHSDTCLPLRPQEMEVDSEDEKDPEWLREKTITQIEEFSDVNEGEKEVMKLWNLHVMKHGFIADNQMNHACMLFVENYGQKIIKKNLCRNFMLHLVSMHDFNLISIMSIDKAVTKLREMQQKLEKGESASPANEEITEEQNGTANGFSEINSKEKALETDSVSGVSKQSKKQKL
Sequence (Q09028 whole entry partner): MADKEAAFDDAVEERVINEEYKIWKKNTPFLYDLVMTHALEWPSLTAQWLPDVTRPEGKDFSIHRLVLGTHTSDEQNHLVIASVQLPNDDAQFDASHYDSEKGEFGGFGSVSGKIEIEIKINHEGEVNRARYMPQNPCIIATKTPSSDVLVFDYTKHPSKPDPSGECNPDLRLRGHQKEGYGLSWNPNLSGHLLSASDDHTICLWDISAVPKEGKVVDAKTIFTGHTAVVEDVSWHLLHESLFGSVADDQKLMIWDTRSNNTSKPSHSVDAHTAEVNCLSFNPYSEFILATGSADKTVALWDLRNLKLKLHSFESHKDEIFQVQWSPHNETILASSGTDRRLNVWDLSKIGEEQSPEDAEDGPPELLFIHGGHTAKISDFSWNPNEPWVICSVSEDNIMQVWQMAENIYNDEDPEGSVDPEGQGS
Sequence (Q6ZN18 whole entry partner): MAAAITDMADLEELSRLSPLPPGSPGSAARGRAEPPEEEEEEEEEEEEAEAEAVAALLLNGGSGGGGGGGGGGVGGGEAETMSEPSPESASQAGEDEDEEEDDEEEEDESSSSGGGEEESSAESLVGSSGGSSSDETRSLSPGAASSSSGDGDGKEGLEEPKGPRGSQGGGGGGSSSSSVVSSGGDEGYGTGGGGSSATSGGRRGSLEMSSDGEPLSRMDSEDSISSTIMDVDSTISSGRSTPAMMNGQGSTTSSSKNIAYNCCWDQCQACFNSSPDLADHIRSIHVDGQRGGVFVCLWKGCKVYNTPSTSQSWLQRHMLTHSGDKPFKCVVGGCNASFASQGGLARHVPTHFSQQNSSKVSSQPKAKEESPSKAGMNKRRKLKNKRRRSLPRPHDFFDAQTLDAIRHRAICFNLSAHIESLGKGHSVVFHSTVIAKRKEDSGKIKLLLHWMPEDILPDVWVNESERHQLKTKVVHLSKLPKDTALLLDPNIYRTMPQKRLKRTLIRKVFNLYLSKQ
assay text: EED LC-MS assay (SAH production by PRC2)
Assay type: biochemical
condition notes: PRC2 LC-MS assay; read-out: (b) IC50 EED LC-MS Qualified
readout kind: IC50 (µM)

COc1cccc(F)c1CNc1ccc(-c2ccnc(C)c2C)c2nncn12 [Example 287] ... 0.0386
COc1cc(F)cc(F)c1CNc1ccc(-c2cccnc2C(F)F)c2nncn12 [Example 302] ... 0.0393
COc1cc(F)cc(F)c1CNc1ccc(-c2cnc(C)cc2C(F)F)c2nncn12 [Example 317] ... 0.218
COc1ncccc1CNc1ccc(-c2cccnc2C)c2nncn12 [Example 328] ... 0.284
COc1cccc(F)c1CNc1ccc(-c2cncc(C3=NC(C)(C)CO3)c2)c2nncn12 [Example 199] ... 0.328

[P] COc1cccc(F)c1CNc1ccc(-c2cnc(C#N)cc2C)c2nncn12 [Example 251]
[Q] COc1cccc(F)c1CNc1ccc(-c2ccc(F)nc2C)c2nncn12 [Example 222]
Request: Which of the two items, P and Q , has the greater recorded IC50? Could you answer with the label of the item you picked?
Result: Q

[P] COc1cccc(F)c1CNc1ccc(-c2cnc(C3CC3)nc2C)c2nncn12 [Example 284]
[Q] CNC(=O)Cc1cncc(-c2ccc(NCc3c(F)cccc3OC)n3cnnc23)c1 [Example 217]
[R] COc1cccc(F)c1CNc1ccc(-c2cccnc2C(F)(F)F)c2nncn12 [Example 237]
Request: # sort list by recorded IC50, greatest to least Please respond by ranking the labels in the order requested.
Result: Q, R, P
(Q: 0.946 µM, R: 0.116 µM, P: 0.0444 µM)
